Measured values drawn from PubChem BioAssay AID1919014 for this set.

# Test system: NCI-H1341 complex spheroids, percent test/control
# test_method_notes: Anticancer human tumor NCI-H1341 cell line growth inhibition [AhR];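 further: spheroids exposed to agents for seven days before readout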
# applied_conditions: second compound 0.316 µM; first compound 0.000949 µM; hits give low values
measured_quantity: viability, T/C (%)

>  <compound>
Nc1ncn(C2CC(O)C(CO)S2)c(=O)n1 (stereo not drawn) + Cc1cncc(-c2nc(NCCc3c[nH]c4ccccc34)c3ncn(C(C)C)c3n2)c1

>  <subject_of_test>
NCI-H1341 complex spheroids, percent test/control

>  <experimental_result>
84.9

$$$$
>  <compound>
CC(C)CC(NC(=O)C(Cc1ccccc1)NC(=O)c1cnccn1)B(O)O (stereo not drawn) + CC(CO)NC(=O)c1cc(-c2ccc(Cl)cc2)nn(-c2cnn(C)c2)c1=O

>  <subject_of_test>
NCI-H1341 complex spheroids, percent test/control

>  <experimental_result>
88.1

$$$$
>  <compound>
Nc1ncn(C2CC(O)C(CO)S2)c(=O)n1 (stereo not drawn) + CC(CO)NC(=O)c1cc(-c2ccc(Cl)cc2)nn(-c2cnn(C)c2)c1=O

>  <subject_of_test>
NCI-H1341 complex spheroids, percent test/control

>  <experimental_result>
94.6

$$$$
